# Test system: DLD-1 cell strain, 5-FU resistant strain, FTD resistant strain
# Parameters: unit not given here
# Conditions used: RIP sequencing; DLD-1 FTD resistant strain
Measured parameter: methylation on microRNA, FTD resistant strain

substance="miR-378f (ACUGGACUUGGAGCCAGAAG; chemistry not fully specified; listed as Homo sapiens)" value_observed=1
substance="miR-378h (ACUGGACUUGGUGUCAGAUGG; chemistry not fully specified; listed as Homo sapiens)" value_observed=0
substance="miR-4754 (AUGCGGACCUGGGUUAGCGGAGU; chemistry not fully specified; listed as Homo sapiens)" value_observed=0
substance="miR-378d (ACUGGACUUGGAGUCAGAAA; chemistry not fully specified; listed as Homo sapiens)" value_observed=63
substance="miR-3122 (GUUGGGACAAGAGGACGGUCUU; chemistry not fully specified; listed as Homo sapiens)" value_observed=0
substance="miR-3690 (ACCUGGACCCAGCGUAGACAAAG; chemistry not fully specified; listed as Homo sapiens)" value_observed=0
substance="miR-492 (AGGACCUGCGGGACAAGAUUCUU; chemistry not fully specified; listed as Homo sapiens)" value_observed=0
